Data provenance: patent EP1289507B1

assayNotes: Pharmacokinetics and tolerability in subjects with moderate hepatic impairment vs normal healthy subjects
Format: in vivo, human subjects
testConditions: human, in vivo, 400 mg, Multiple Dose, Moderate Impairment; read-out: CL/F, Least Squares Mean (converted)
measuredMetric: CL/F (mL/min)
Entry rule: numbers only, all in mL/min.

Reported CL/F, compound COC(=O)[C@@H]1CC2=CC(=O)CC[C@]2(C)[C@@]23O[C@@H]2C[C@@]2(C)[C@@H](CC[C@@]24CCC(=O)O4)[C@H]13 : ____
152

---

assayNotes: Pharmacokinetics and absorption after IV and oral [14C]eplerenone in the rat
Type: in vivo
testConditions: rat, plasma, po, 15 mg/kg, systemic availability of eplerenone, oral 15 mg/kg, female rat
measuredMetric: bioavailability (%)
Entry rule: numbers only, all in %.

Reported bioavailability, molecule COC(=O)[C@@H]1CC2=CC(=O)CC[C@]2(C)[C@@]23O[C@@H]2C[C@@]2(C)[C@@H](CC[C@@]24CCC(=O)O4)[C@H]13 : ____
66.1
